# GI50 listing for each entry below
# System: SW-620
# Assay Name: NCI tumour cell line growth inhibition, 48 h
Activity calls are given as the source filed them. Cut-off read from the data, not from the text of the source: active = GI50 up to about 1.1 µM and inactive = higher.

Answered examples (3):
COC(=O)CCC(C)[C@H]1CCC2C3C(C[C@H](OC(C)=O)[C@@]21C)[C@@]1(C)CCC2(C[C@H]1C[C@H]3OC(C)=O)OOC1(CCCCC1)OO2 (some centres undefined) ... 33.3 µM (inactive)
CCOc1ccc(NCc2cc(OC)c(OC)c(OC)c2)cc1 ... 0.334 µM (active)
Cn1ncc2[nH]cnc2c1=S ... > 100 µM (inactive)

Recorded result, CC1CN(c2ccc(Cl)cc2)CC(C)OC(=O)O1 (centres undefined) , GI50: > 100 µM (inactive)

So, O=C(CNc1ccccc1C(=O)O)Nn1cnc2ccc(S(=O)(=O)Nc3ccccc3C(=O)O)cc2c1=O ? Its GI50 was > 100 µM (inactive)

Short answer for CC(=O)Oc1ccccc1-c1cc2ccccc2oc1=O : GI50 was > 100 µM (inactive)

====

# System: MDA-N
# Assay Name: NCI tumour cell line growth inhibition, 48 h
Activity calls are given as the source filed them. Cut-off read from the data, not from the text of the source: active = GI50 up to about 1.1 µM and inactive = higher.
Would you mind answering with one of these outcomes? active, inactive

Previously resolved entries follow.
O=P1(NCCCl)OCCC(OO)N1CCCl (stereo not drawn) ... inactive
NC(=O)C1CCCNC1 (stereo not drawn) ... inactive
Cc1nc(-c2ccccc2)c(C)n2c1nc1ccccc12 ... inactive
COC(=O)[C@@H]1C[C@@]23CCCN4CC[C@@]5(c6cccc(OC)c6N(C=O)[C@]15CC2)[C@@H]43 ... inactive
CCOC(CCCN1CCC2(CC1)C(=O)N(C)CN2c1ccccc1)(OCC)c1ccc(F)cc1 ... inactive

Tell me the recorded outcome of this test for N=C(c1cccs1)C1(N2CCCCC2)CCCCC1 .
inactive

Please share the test call associated with Cc1cccc2c(N)c3cccc(C(=O)NCC[N+](C)(C)Cc4c([N+](=O)[O-])ncn4C)c3nc12 .
inactive

Per the assay record, what outcome was assigned to CC1=CC(c2ccccc2)OP1(=O)c1ccccc1 (stereo not drawn) ?
inactive

Assay result, entry C=C1CC(Cn2cc(Br)c(=O)[nH]c2=O)(c2ccc(-c3ccccc3)cc2)OC1=O (stereo not drawn) — outcome?
active

// outcome(item) with item = O=C1CC[C@@]2(O)[C@H]3Cc4ccc(-c5ccccc5)c5c4[C@@]2(CCN3CC2CC2)[C@H]1O5
inactive

For CCCCN1C(=O)CC2[C@@H]3CCc4cc(OC(C)=O)ccc4C3CC[C@]2(C)C1=O (stereo partly drawn) , which call appears in the assay record?
inactive

Hey, what did the test say about CNC(=O)Nc1nc2cc([N+](=O)[O-])ccc2[nH]1 ?
inactive

Tell me the recorded outcome of this test for O=c1[nH]c(-c2ccc(Cl)cc2)cc2ccsc12 .
inactive

====

# Test system: KM12
# Assay Name: NCI tumour cell line growth inhibition, 48 h
The source made the active and inactive calls. No stated cut-off is given here; in the data, active = GI50 up to about 1.1 µM and inactive = higher.
I would appreciate it if you answered using one of these outcomes: active, inactive

Here are 4 molecules together with their reported answers.
CCOc1ccccc1C=C1c2ccccc2C(=O)c2ccccc21 ... active
CC1=N/C(=C\c2ccc(C)cc2)C(=O)O1 ... inactive
CN(C)Cc1cc(/N=N/c2ccccc2)cc(CN(C)C)c1O ... inactive
Cn1cc/c(=N\N=c2/ccn(C)c3ccccc23)c2ccccc21 ... inactive

I would be grateful if you could indicate the recorded call for C=C1C(=O)OC2CC(C)C(C(CC(C)=O)OC(C)=O)=CCC12 (stereo not given) .
inactive

Please state the recorded outcome for this molecule: COc1cc(/C=C/C(=O)Oc2ccc(NC(C)=O)cc2)ccc1C(=O)O/C=C/c1ccccc1
inactive

====

# Tested on: A549
# Assay Name: NCI tumour cell line growth inhibition, 48 h
Calls of active or inactive are those of the source. No stated cut-off is given here; in the data, active = GI50 up to about 1.1 µM and inactive = higher. Square brackets hold non-standard residues; d marks the D form. Peptide text beside a SMILES is read from it. * marks the point of attachment. ξ: configuration not given here. NMeY = CN[C@@H](Cc1ccc(O)cc1)C(=O)O; Cbz = O=C(OCc1ccccc1)*; ξA = CC(N)C(=O)O
The categories you may choose from are class 1 = active, class 0 = inactive

CC(=O)N1[C@H](C(=O)O)CS[C@H]1c1ccncc1 ... class 0
COc1ccc(C[C@@H](C(=O)N[C@@H](C)C(N)=O)N(C)C(=O)[C@@H]2CCCN2C(=O)[C@H](CC(C)C)NC(=O)C(C)NC(=O)OCc2ccccc2)cc1 (stereo partly drawn) (Cbz-[ξA]LP[NMeY](Me)A-NH2) ... class 0
O=C1c2cc3ccccc3cc2C2(c3ccc(Cl)cc3)N[C@H]3CCCC[C@@H]3N12 (stereo partly drawn) ... class 0

We next turn to a different compound, shown below.
Dear colleague, could you share the recorded outcome for O=C(O)CNS(=O)(=O)c1ccc(NC(=O)c2cccc([N+](=O)[O-])c2)cc1 when you have a moment?
class 0

====

# Test system: NCI-H460
# Assay Name: NCI tumour cell line growth inhibition, 48 h
The source made the active and inactive calls. Rule as the data show it: active = GI50 up to about 1.1 µM and inactive = higher.
Thanks in advance; please answer with one of these: Yes (active), No (inactive)

The examples below pair each entry with its known result.
CNC(=O)OCc1c2ccncc2c(C)c2c1[nH]c1ccc(OC)cc12 ... Yes
COc1cc(-c2cn(S(=O)(=O)c3ccc(C)cc3)c3ccccc23)nc(-c2cn(S(=O)(=O)c3ccc(C)cc3)c3ccccc23)n1 ... Yes
C[Si](C)(C)OC1CC(=O)OC1n1cc(F)c(=O)[nH]c1=O (centres undefined) ... No

What was the test verdict on C=C1C(=O)O[C@H]2C1C[C@@H](OC(C)=O)/C(C)=C/CC[C@@]1(C)O[C@H]21 (some centres undefined) ?
No

Query: recorded result category for CCC(CO)Nc1nc(NCc2ccccc2)c2ncn(C(C)C)c2n1 (stereo not drawn) [(RS)-ROSCOVITINE] in this test
No

Which outcome was assigned to O=C(/C=C/c1ccccc1)/C=C/c1ccccc1 in this test?
No

Outcome? CO[C@H]1Nc2c(ccc(C)c2O)C(=O)N2C=C(/C=C/C(N)=O)C[C@@H]12
Yes

Which outcome was entered for the molecule CCCCCC(=O)N[C@H]1CCc2cc(OC)c(OC)c(OC)c2-c2ccc(SC)c(=O)cc21 in this test?
Yes

In this assay, the call recorded for Nc1ncc(CN2CCOCC2)c(-c2ccccc2O)n1 was what?
No

====

# Tested on: SK-OV-3
# Assay Name: NCI tumour cell line growth inhibition, 48 h
Activity calls are given as the source filed them. Rule as the data show it: active = GI50 up to about 1.1 µM and inactive = higher.
Measured Attribute: GI50

c1ccc2c(CN3CCC(C4CCN(Cc5cccc6ccccc56)CC4)CC3)cccc2c1 ... 21.1 µM (inactive)
O=C(/C=C/c1ccccc1)OCC1=C[C@@H](O)[C@@H]2C=CO[C@@H](OC3OC(CO)C(O)C(O)C3O)[C@H]12 (stereo not given in full) ... > 100 µM (inactive)

Record CNC(=O)Nc1nc2cc([N+](=O)[O-])ccc2[nH]1 has SK-OV-3 GI50 equal to > 100 µM (inactive)

Reported SK-OV-3 GI50 for item CCNC(=O)C(O)C1(O)CCC2[C@@H]3CCC4=CC(=O)C=C[C@]4(C)C3[C@@H](O)C[C@@]21C (stereo not given in full) was > 100 µM (inactive)

SC1=NC2=C(CSC/C2=C\c2ccccc2)C(c2ccccc2)N1 (stereo not given) on SK-OV-3 gives GI50 = 92.7 µM (inactive)

====

// reported GI50 for each item listed
# System: OVCAR-3
# Assay Name: NCI tumour cell line growth inhibition, 48 h
The source made the active and inactive calls. No stated cut-off is given here; in the data, active = GI50 up to about 1.1 µM and inactive = higher.

Before answering, review these 8 worked examples.
CCN1C(=O)C(=CN)C(=O)N(CC)C1=O ... > 100 µM (inactive)
CCC(CO)Nc1nc(NCc2ccccc2)c2ncn(C(C)C)c2n1 (stereo not drawn) [(RS)-ROSCOVITINE] ... 9.23 µM (inactive)
O=C1OC2C(O)C(=O)OC2C1O (centres undefined) ... > 100 µM (inactive)
CC1(C(=O)NCCN(CCNC(=O)C2(C)CC3(C)CC(C)(C2)C(=O)NC3=O)CCNC(=O)C2(C)CC3(C)CC(C)(C2)C(=O)NC3=O)CC2(C)CC(C)(C1)C(=O)NC2=O (centres undefined) ... > 100 µM (inactive)
COC(=O)CCC(C)[C@H]1CCC2C3C(C[C@H](OC(C)=O)[C@@]21C)[C@@]1(C)CCC2(C[C@H]1C[C@H]3OC(C)=O)OOC1(CCCCC1)OO2 (some centres undefined) ... 40.5 µM (inactive)
CN(C)CCSc1cccc(-c2cc(-c3cccc(SCCN(C)C)c3)nc(SCCN(C)C)n2)c1 ... 10.2 µM (inactive)
O=C(O)C1=CCCc2ccc3ccccc3c21 ... > 100 µM (inactive)
ClCc1nn(-c2ccccc2)c(CCl)c1CCl ... 3.47 µM (inactive)

Shift focus to the following entry.
Field GI50 (entry Cn1c(Sc2ccc(-c3cccnc3)n2C)ccc1-c1cccnc1 ) reads 11.3 µM (inactive)
